Target: hCB1 receptor (Homo sapiens)
Sequence (P21554 whole entry): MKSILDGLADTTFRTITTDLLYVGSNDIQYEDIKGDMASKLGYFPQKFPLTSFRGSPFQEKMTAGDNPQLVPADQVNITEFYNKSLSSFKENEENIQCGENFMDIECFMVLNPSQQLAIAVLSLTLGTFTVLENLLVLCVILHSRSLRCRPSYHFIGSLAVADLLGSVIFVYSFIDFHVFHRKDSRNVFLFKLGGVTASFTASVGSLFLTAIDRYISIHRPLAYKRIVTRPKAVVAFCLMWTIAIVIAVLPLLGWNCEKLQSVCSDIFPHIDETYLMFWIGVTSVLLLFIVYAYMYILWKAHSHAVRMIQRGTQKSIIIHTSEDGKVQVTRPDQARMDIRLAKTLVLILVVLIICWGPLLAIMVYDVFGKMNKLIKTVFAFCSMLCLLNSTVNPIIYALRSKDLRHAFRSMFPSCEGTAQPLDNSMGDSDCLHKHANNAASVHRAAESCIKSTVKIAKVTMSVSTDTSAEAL
Assay: Agonist-stimulated [35S]GTPγS binding, hCB1 membranes
pEC50: −log10 of the molar value.
Kindly return fulfilled if reported pEC50 is no lower than 7; return not fulfilled if it is lower.

Reference set (4 entries):
Dear colleague, could you confirm whether N#CCCCCn1cc(C(=O)c2cccc3ccccc23)c2ccccc21 has pEC50 at or above 7?
not fulfilled

Dear colleague, could you confirm whether CN1CCCCC1Cn1cc(C(=O)c2ccccc2I)c2ccccc21 (stereo not drawn) has pEC50 at or above 7?
not fulfilled

Dear colleague, could you confirm whether Cc1ccc(C(=O)c2cn(CCCCCF)c3ccccc23)c2ccccc12 has pEC50 at or above 7?
fulfilled

Dear colleague, could you confirm whether CCc1ccc(C(=O)c2cn(CCCCCF)c3ccccc23)c2ccccc12 has pEC50 at or above 7?
fulfilled

As a next step, examine the compound that follows.
Dear colleague, could you confirm whether CCCCCn1cc(C(=O)c2ccccc2I)c2ccccc21 has pEC50 at or above 7?
not fulfilled

Cited source: paper PMC5934329
